Target: KRas G12C (Homo sapiens, UniProt P01116, G12C)
Construct: NCI-H358 cells (ATCC CRL-5807) express KRas G12C
Sequence (P01116 1-188 isoform P01116-2 G12C): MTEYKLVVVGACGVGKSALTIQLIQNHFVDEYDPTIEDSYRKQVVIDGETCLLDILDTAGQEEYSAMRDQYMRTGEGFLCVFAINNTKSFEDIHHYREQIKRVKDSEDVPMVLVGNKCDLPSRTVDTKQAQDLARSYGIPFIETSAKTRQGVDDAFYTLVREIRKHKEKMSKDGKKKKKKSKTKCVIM
Experiment: Inhibition of KRas G12C-dependent cell growth: Phospho-ERK in NCI-H358 cells
Settings: NCI-H358 cells expressing KRas G12C; Phospho-ERK (Thr202/Tyr204) normalized to GAPDH; 3 hours compound; 4 parameter fit
Method: The cellular inhibition of KRAs G12C by exemplary compounds of the present invention was determined by measuring the amount of a downstream marker of KRas activity, phosphorylated ERK (“Phospho-ERK”). […] The amount Phospho-ERK was determined using an antibody specific for the phosphorylated form of ERK and compared to the amount of GAPDH. […] The pERK(Thr202/Tyr204) signal was normalized with the GAPDH signal and percent of DMSO control values were calculated. […]
Each entry below carries its recorded IC50.
Use µM as the unit, but write only the number.

Here's what some known entries look like.
[[record]]
compound = "C=CC(=O)N1CC[C@@H]2[C@H]1CN2c1ncnc2c(F)c(-c3cccc4cccc(C)c34)ncc12"
parameter = "IC50"
endpoint_value = 2.43

[[record]]
compound = "C=CC(=O)N1CCN(c2ncnc3c(F)c(-c4cccc5cc(C)ccc45)ncc23)CC1"
parameter = "IC50"
endpoint_value = 10

[[record]]
compound = "C=C(F)C(=O)N1CCN(c2nc(OCC3CN(C)CCO3)nc3c(F)c(-c4cccc5cccc(Cl)c45)ncc23)C[C@@H]1CC#N (stereo partly drawn)"
parameter = "IC50"
endpoint_value = 0.036


Data request: // IC50 lookup, key: C=C(F)C(=O)N1CCN(c2nc(OCCc3cccc(N)c3)nc3c(F)c(-c4cccc5cccc(Cl)c45)ncc23)C[C@@H]1CC#N
Data returned: 0.618

Data request: Record: C=C(F)C(=O)N1CCN(c2nc(OCC3(C)COC3)nc3c(F)c(-c4cccc5ccc(F)c(Cl)c45)ncc23)C[C@@H]1CC#N
Data returned: 0.221

Data request: Record: C=C(F)C(=O)N1CCN(c2nc(OC[C@@H]3CC(F)(F)CN3C)nc3c(F)c(-c4cccc5cccc(C)c45)ncc23)C[C@@H]1CC#N
Data returned: 0.127

====

Each entry below carries its recorded pIC50.
Target: KRas G12C (Homo sapiens, UniProt P01116, G12C)
Construct: NCI-H358 cells (ATCC CRL-5807) express KRas G12C
Assay: Inhibition of KRas G12C-dependent cell growth: Phospho-ERK in NCI-H358 cells
Details: NCI-H358 cells expressing KRas G12C; Phospho-ERK (Thr202/Tyr204) normalized to GAPDH; 3 hours compound; 4 parameter fit
Experimental: The cellular inhibition of KRAs G12C by exemplary compounds of the present invention was determined by measuring the amount of a downstream marker of KRas activity, phosphorylated ERK (“Phospho-ERK”). […] The amount Phospho-ERK was determined using an antibody specific for the phosphorylated form of ERK and compared to the amount of GAPDH. […] The pERK(Thr202/Tyr204) signal was normalized with the GAPDH signal and percent of DMSO control values were calculated. […]
Friendly reminder that pIC50 comes from taking -log10 of the concentration in mol/L.

[[record]]
molecule = "C=C(F)C(=O)N1CCN(c2nc(OC[C@@H]3CCCN3C)nc3c(F)c(-c4ccccc4F)ncc23)C[C@@H]1CC#N [Example 87]"
tested_target = "KRas G12C (Homo sapiens, UniProt P01116, G12C)"
parameter = "pIC50"
endpoint_value = 5.36

[[record]]
molecule = "C=CC(=O)N1CCN(c2ncnc3c(F)c(-c4cccc5ccc(F)cc45)ncc23)C[C@@H]1CC#N [Example 197]"
tested_target = "KRas G12C (Homo sapiens, UniProt P01116, G12C)"
parameter = "pIC50"
endpoint_value = 6.78

[[record]]
molecule = "C=CC(=O)N1CCN(c2ncnc3c(F)c(-c4cccc(Cl)c4C4CC4)ncc23)C[C@@H]1CC#N [Example 241]"
tested_target = "KRas G12C (Homo sapiens, UniProt P01116, G12C)"
parameter = "pIC50"
endpoint_value = 6.95

[[record]]
molecule = "C=C(F)C(=O)N1CCN(c2nc(OCCCN3C[C@@H]4C[C@H]3CO4)nc3c(F)c(-c4cccc5cccc(Cl)c45)ncc23)C[C@@H]1CC#N [Example 29]"
tested_target = "KRas G12C (Homo sapiens, UniProt P01116, G12C)"
parameter = "pIC50"
endpoint_value = 7.07


Data request: // pIC50 lookup, key: C=C(F)C(=O)N1CCN(c2nc(OCC3CCC4CCCN43)nc3c(F)c(-c4cccc5ccc(F)c(Cl)c45)ncc23)C[C@@H]1CC#N (stereo partly shown) [Example 174]
Data returned: 7.70

Data request: Record: C=CC(=O)N1CCN(c2nc(OCCN3CCOCC3)nc3cc(-c4cc(O)cc5ccccc45)ncc23)CC1 [Example 4]
Data returned: 5.46

Data request: Record: C=C(F)C(=O)N1CCN(c2nc(OCC3CCN3C)nc3c(F)c(-c4cccc5cccc(Cl)c45)ncc23)C[C@@H]1CC#N (stereo partly shown) [Example 71]
Data returned: 7.89

Data request: Record: C=C(F)C(=O)N1CCN(c2nc(OC[C@H]3C[C@@H](F)CN3C)nc3c(F)c(-c4cccc5ccc(F)c(Cl)c45)ncc23)C[C@@H]1CC#N [Example 167]
Data returned: 7.22

Data request: Record: C=CC(=O)N1CC[C@@H]2[C@H]1CN2c1nc(OC)nc2c(F)c(-c3cccc4ccc(F)c(Cl)c34)ncc12 [Example 267]
Data returned: 6.48

Data request: Record: C=CC(=O)N1CC[C@@H]2[C@H]1CN2c1ncnc2c(F)c(-c3cccc4ccc(F)c(C)c34)ncc12 [Example 285]
Data returned: 6.11

Data request: Record: C=C(F)C(=O)N1CCN(c2nc(OC[C@@H]3[C@@H](F)CCN3C)nc3c(F)c(-c4cccc5ccc(F)c(Cl)c45)ncc23)C[C@@H]1CC#N [Example 176]
Data returned: 7.52

Data request: Record: C=CC(=O)N1CCN(c2ncnc3c(F)c(-c4cccc5cccc(Cl)c45)ncc23)C[C@@H]1CC#N [Example 108]
Data returned: 7.43

Data request: Record: C=C(F)C(=O)N1CCN(c2nc(OCC3CCN3C(C)(C)C)nc3c(F)c(-c4cccc5cccc(Cl)c45)ncc23)C[C@@H]1CC#N (stereo partly shown) [Example 59]
Data returned: 7.22

====

Biological target: KRas G12C (Homo sapiens, UniProt P01116, G12C)
Construct: NCI-H358 cells (ATCC CRL-5807) express KRas G12C
Experiment: Inhibition of KRas G12C-dependent cell growth: Phospho-ERK in NCI-H358 cells
Conditions: NCI-H358 cells expressing KRas G12C; Phospho-ERK (Thr202/Tyr204) normalized to GAPDH; 3 hours compound; 4 parameter fit
PARAMETER: IC50 (nM)
Use nM as the unit, but write only the number.

[[record]]
molecule = "C#Cc1cccc2cc(O)cc(-c3ncc4c(N5CCN(C(=O)C=C)CC5)ncnc4c3F)c12 [Example 215]"
result_unit = "nM"
endpoint_value = 31

[[record]]
molecule = "C=C(F)C(=O)N1CCN(c2nc(OCc3cc4ncccc4[nH]3)nc3c(F)c(-c4cccc5ccc(F)c(Cl)c45)ncc23)C[C@@H]1CC#N [Example 142]"
result_unit = "nM"
endpoint_value = 1250

[[record]]
molecule = "N#CC[C@H]1CN(c2nc(OCCCN3C[C@@H]4C[C@H]3CO4)nc3c(F)c(-c4cncc5cccc(Cl)c45)ncc23)CCN1C(=O)/C=C/CF [Example 48]"
result_unit = "nM"
endpoint_value = 270

[[record]]
molecule = "C=C(F)C(=O)N1CCN(c2nc(OC[C@@H]3CC(F)(F)CN3C)nc3c(F)c(-c4cncc5cccc(C)c45)ncc23)C[C@@H]1CC#N [Example 45]"
result_unit = "nM"
endpoint_value = 205

[[record]]
molecule = "C=CC(=O)N1CC[C@@H]2[C@H]1CN2c1ncnc2c(F)c(-c3cccc4ccsc34)ncc12 [Example 278]"
result_unit = "nM"
endpoint_value = 10000


Data request: // IC50 lookup, key: C=CC(=O)N1C[C@@H]2[C@H]1CCN2c1ncnc2c(F)c(-c3cccc4ccc(F)c(Cl)c34)ncc12 [Example 190]
Data returned: 10000

Data request: Record: C=CC(=O)N1CCN(c2ncnc3cc(-c4c(O)cccc4F)ncc23)CC1 [Example 3]
Data returned: 16000

Data request: Record: C=C(F)C(=O)N1CCN(c2nc(OCc3ccn[nH]3)nc3c(F)c(-c4cccc5ccc(F)c(Cl)c45)ncc23)C[C@@H]1CC#N [Example 124]
Data returned: 1770

Data request: Record: C#Cc1cccc2cc(O)cc(-c3ncc4c(N5C[C@@H]6[C@H]5CCN6C(=O)C=C)nc(OC[C@@H]5CCCN5C)nc4c3F)c12 [Example 292]
Data returned: 20

Data request: Record: C=CC(=O)N1CCN(c2nc(OC[C@@H]3CCCN3C)nc3c(F)c(-c4nc(N)ccc4Cl)ncc23)CC1 [Example 103]
Data returned: 10000

Data request: Record: C=CC(=O)N1CCC12CCN(c1ncnc3c(F)c(-c4cccc5ccc(F)c(Cl)c45)ncc13)C2 (stereo not shown) [Example 235]
Data returned: 10000

Data request: Record: C=C(F)C(=O)N1CCN(c2nc(O[C@@H]3CO[C@H]4[C@@H]3OC[C@H]4O)nc3c(F)c(-c4cccc5ccc(F)c(Cl)c45)ncc23)C[C@@H]1CC#N [Example 240]
Data returned: 10000

Data request: Record: C=C(F)C(=O)N1CCN(c2nc(OC[C@@H]3C[C@@H](F)CN3C)nc3c(F)c(-c4cccc5ccc(F)c(Cl)c45)ncc23)C[C@@H]1CC#N [Example 126]
Data returned: 15

Data request: Record: C=C(F)C(=O)N1CCN(c2nc(OC[C@@H]3C[C@@H](F)CN3C)nc3c(F)c(-c4cncc5cccc(Cl)c45)ncc23)C[C@@H]1CC#N [Example 52]
Data returned: 23
